meta.source: patent US12016682B2

assay: Continuous real-time MEDIC measurement of in vivo DOX concentration in live rats; conditions: male, Sprague-Dawley, rat, 1 mg·m^−2, alpha-phase half-life t1/2^α, second of two injections of 1 mg·m^−2
attribute-measured: half-life (min)
Answers are plain numbers, in min.

IN: Query: half-life; subject: COc1cccc2c1C(=O)c1c(O)c3c(c(O)c1C2=O)C[C@@](O)(C(=O)CO)C[C@@H]3O[C@H]1C[C@H](N)[C@H](O)[C@H](C)O1
OUT: 10.8

====

test: in vivo; conditions: male, Sprague-Dawley, rat, iv, 96 mg/kg
attribute-measured: half-life (min)
Give bare numbers, in min.

IN: Returns the measured half-life for the input compound. Input: NC[C@H]1O[C@H](O[C@H]2[C@H](O)[C@@H](O[C@H]3O[C@H](CO)[C@@H](O)[C@H](N)[C@H]3O)[C@H](N)C[C@@H]2N)[C@H](O)[C@@H](O)[C@@H]1O
OUT: 9
